- assay_target: EGFR bearing the L858R mution (Homo sapiens, UniProt P00533, L858R)
- Sequence (P00533 25-1210 L858R): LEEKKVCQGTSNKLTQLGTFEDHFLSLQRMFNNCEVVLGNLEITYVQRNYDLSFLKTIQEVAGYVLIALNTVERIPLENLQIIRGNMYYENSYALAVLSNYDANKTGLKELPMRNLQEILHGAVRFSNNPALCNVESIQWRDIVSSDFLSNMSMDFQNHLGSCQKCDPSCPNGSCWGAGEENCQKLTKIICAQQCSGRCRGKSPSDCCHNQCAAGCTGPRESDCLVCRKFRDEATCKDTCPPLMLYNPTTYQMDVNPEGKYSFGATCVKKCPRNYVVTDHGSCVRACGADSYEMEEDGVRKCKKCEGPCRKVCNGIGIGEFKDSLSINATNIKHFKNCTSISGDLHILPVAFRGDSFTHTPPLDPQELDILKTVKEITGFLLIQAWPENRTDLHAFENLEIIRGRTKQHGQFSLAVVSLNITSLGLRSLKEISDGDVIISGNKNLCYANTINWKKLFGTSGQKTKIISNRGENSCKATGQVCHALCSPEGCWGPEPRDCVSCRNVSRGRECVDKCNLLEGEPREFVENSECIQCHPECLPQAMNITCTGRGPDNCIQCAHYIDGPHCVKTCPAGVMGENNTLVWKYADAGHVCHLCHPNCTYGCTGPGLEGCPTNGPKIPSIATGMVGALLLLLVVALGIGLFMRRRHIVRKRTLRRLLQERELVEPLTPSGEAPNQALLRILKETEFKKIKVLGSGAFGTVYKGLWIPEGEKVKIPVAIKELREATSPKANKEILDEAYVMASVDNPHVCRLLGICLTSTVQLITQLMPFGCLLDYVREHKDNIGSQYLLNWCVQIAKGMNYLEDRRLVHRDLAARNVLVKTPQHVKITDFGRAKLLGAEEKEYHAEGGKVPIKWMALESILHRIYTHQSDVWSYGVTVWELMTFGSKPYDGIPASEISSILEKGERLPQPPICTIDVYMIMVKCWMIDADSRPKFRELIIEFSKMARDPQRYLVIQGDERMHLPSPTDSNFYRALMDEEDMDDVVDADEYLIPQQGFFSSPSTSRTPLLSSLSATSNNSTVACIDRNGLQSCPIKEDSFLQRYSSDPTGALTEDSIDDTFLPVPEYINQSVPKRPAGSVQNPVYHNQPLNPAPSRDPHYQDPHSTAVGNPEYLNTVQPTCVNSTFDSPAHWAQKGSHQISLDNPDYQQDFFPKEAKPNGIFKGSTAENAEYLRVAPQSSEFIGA
- procedure_details: Kinase inhibition, EGFR L858R
- Assay type: biochemical
- test_conditions: 10 μM ATP; 10 pt curves, 3 μM top concentration (singlicates)
Answer each item with its documented IC50.

// query Query (compound): C=CC(=O)Nc1cc(Nc2ncc(CC)c(Nc3ccccc3P(C)(C)=O)n2)c(OC)cc1N(C)CCN(CC)CC ; field requested: IC50
// result < 51 nM

// query Query (compound): COc1ccc(NC(=O)/C=C/CN2CCOCC2)cc1Nc1ncc(Cl)c(Nc2ccccc2P(C)(C)=O)n1 ; field requested: IC50
// result < 51 nM

// query Query (compound): C=CC(=O)N(C(=O)C=C)c1ccc(OC)c(Nc2ncc(Cl)c(Nc3ccccc3P(C)(C)=O)n2)c1 ; field requested: IC50
// result 101 to 250 nM

// query Query (compound): C=CC(=O)N(CCCN(C)C)c1ccc(OC)c(Nc2ncc(Cl)c(Nc3ccccc3P(C)(C)=O)n2)c1 ; field requested: IC50
// result 101 to 250 nM

// query Query (compound): C=CC(=O)Nc1cc(Nc2ncc(Cl)c(Nc3ccccc3P(C)(C)=O)n2)c(OC)cc1OCCN(C)CCOC ; field requested: IC50
// result < 51 nM

// query Query (compound): C=CC(=O)Nc1cccc(Nc2ncc(Cl)c(Nc3ccccc3P(C)(C)=O)n2)c1 ; field requested: IC50
// result < 51 nM

---

- Test system: BAF3 EGFR L858R-T790M PURO POOL
- procedure_details: Cell proliferation (MTT), BAF3 EGFR L858R-T790M
- Format: cell-based
- test_conditions: Ba/F3 EGFR
- Procedure: We also assessed the antiproliferative activity of compounds of Formula (I) against BaF3 cells expressing the target EGFR mutations or control (i.e., cell lines expressing wildtype EGFR). Assays were conducted using MTT.
property_measured: IC50

// query Query (compound): C=CC(=O)Nc1cc(Nc2ncc(Cl)c(Nc3ccccc3P(C)(C)=O)n2)c(OC)cc1OCCOC ; field requested: IC50
// result 51 to 100 nM

// query Query (compound): COc1cc(N2CCOCC2)c(NC(=O)C2CO2)cc1Nc1ncc(Cl)c(Nc2ccccc2P(C)(C)=O)n1 (stereo not drawn) ; field requested: IC50
// result 101 to 250 nM

// query Query (compound): COc1ccc(NC(=O)C2(C)CO2)cc1Nc1ncc(Cl)c(Nc2ccccc2P(C)(C)=O)n1 (stereo not drawn) ; field requested: IC50
// result < 51 nM

// query Query (compound): C=CC(=O)Nc1ccc(OC)c(Nc2ncc(Cl)c(Nc3ccccc3P(=O)(CC)CC)n2)c1 ; field requested: IC50
// result < 51 nM

// query Query (compound): C=CC(=O)Nc1ccc(OC)c(Nc2ncc(Cl)c(Nc3cccc(F)c3P(C)(C)=O)n2)c1 ; field requested: IC50
// result < 51 nM

// query Query (compound): C=CC(=O)Nc1cc(Nc2ncc(Cl)c(Nc3ccccc3P(=O)(CC)CC)n2)c(OC)cc1OCCN(C)C ; field requested: IC50
// result < 51 nM

// query Query (compound): C=CC(=O)Nc1cc(Nc2ncc(Cl)c(Nc3ccccc3P(C)(C)=O)n2)c(OC)cc1O[C@@H](COC)CN(CC)CC (stereo in doubt) ; field requested: IC50
// result < 51 nM

// query Query (compound): C=CC(=O)Nc1cc(Nc2ncc(Cl)c(Nc3ccccc3P(=O)(CC)CC)n2)c(OC)cc1F ; field requested: IC50
// result < 51 nM

// query Query (compound): C=CP(C)(=O)Cc1ccc(OC)c(Nc2ncc(Cl)c(Nc3ccccc3P(C)(C)=O)n2)c1 (stereo not drawn) ; field requested: IC50
// result ≥ 250 nM

// query Query (compound): CC#CC(=O)Nc1ccc(OC)c(Nc2ncc(Cl)c(Nc3ccccc3P(C)(C)=O)n2)c1 ; field requested: IC50
// result 51 to 100 nM

// query Query (compound): COc1ccc(NC(=O)C2CO2)cc1Nc1ncc(Cl)c(Nc2ccccc2P(C)(C)=O)n1 (stereo not drawn) ; field requested: IC50
// result < 51 nM

// query Query (compound): COc1cc(F)c(NC(=O)/C=C/CN(C)C)cc1Nc1ncc(Cl)c(Nc2ccccc2P(C)(C)=O)n1 ; field requested: IC50
// result < 51 nM

// query Query (compound): C=CC(=O)Nc1ccc(OC)c(Nc2ncc(F)c(Nc3ccccc3P(C)(C)=O)n2)c1 ; field requested: IC50
// result 101 to 250 nM

// query Query (compound): C=CC(=O)Nc1cc(Nc2ncc(Cl)c(Nc3ccccc3P(C)(C)=O)n2)c(OC)cc1OCCN(C)C ; field requested: IC50
// result < 51 nM

// query Query (compound): C=CC(=O)Nc1cc(Nc2ncc(Cl)c(Nc3ccccc3P(C)(C)=O)n2)c(OC)cc1CCCN(CC)CC ; field requested: IC50
// result ≥ 250 nM

// query Query (compound): C=CC(=O)Nc1cc(Nc2ncc(Cl)c(Nc3cccc(C)c3P(=O)(CC)CC)n2)c(OC)cc1F ; field requested: IC50
// result < 51 nM

// query Query (compound): C=CC(=O)N(CCCN(C)C)c1ccc(OC)c(Nc2ncc(Cl)c(Nc3ccccc3P(C)(C)=O)n2)c1 ; field requested: IC50
// result ≥ 250 nM

// query Query (compound): C=CC(=O)Nc1ccc(OC)c(Nc2ncc(Cl)c(Nc3cccc(C)c3P(C)(C)=O)n2)c1 ; field requested: IC50
// result < 51 nM

// query Query (compound): C=CC(=O)Nc1cc(Nc2ncc(Cl)c(Nc3ccccc3P(C)(C)=O)n2)c(OC)cc1OC1CCOC1 (stereo not drawn) ; field requested: IC50
// result 101 to 250 nM

// query Query (compound): C=CC(=O)Nc1cc(Nc2ncc(Cl)c(Nc3ccccc3P(C)(C)=O)n2)c(OC)cc1N(C)CCCN(C)C ; field requested: IC50
// result 101 to 250 nM

// query Query (compound): C=CC(=O)Nc1cc(Nc2ncc(Cl)c(Nc3ccccc3P(C)(C)=O)n2)c(OC)cc1N1CCOCC1 ; field requested: IC50
// result 51 to 100 nM

// query Query (compound): COc1ccc(NC(=O)/C=C/CN(C)C)cc1Nc1ncc(Cl)c(Nc2ccccc2P(C)(C)=O)n1 ; field requested: IC50
// result 51 to 100 nM

// query Query (compound): C=CC(=O)Nc1cc(Nc2ncc(Cl)c(Nc3ccccc3P(C)(C)=O)n2)c(OC)cc1OC ; field requested: IC50
// result 101 to 250 nM

// query Query (compound): C=CC(=O)Nc1cc(Nc2ncc(Cl)c(Nc3ccccc3P(C)(C)=O)n2)c(OC)cc1CCN(CC)CC ; field requested: IC50
// result 51 to 100 nM

// query Query (compound): C=CC(=O)Nc1ccc(OC)c(Nc2ncc(CC)c(Nc3ccccc3P(C)(C)=O)n2)c1 ; field requested: IC50
// result < 51 nM

// query Query (compound): C=CC(=O)Nc1ccc(OC)c(Nc2nccc(Nc3ccccc3P(C)(C)=O)n2)c1 ; field requested: IC50
// result ≥ 250 nM

// query Query (compound): COCCOc1cc(OC)c(Nc2ncc(Cl)c(Nc3ccccc3P(C)(C)=O)n2)cc1NC(=O)/C=C/CN(C)C ; field requested: IC50
// result ≥ 250 nM

// query Query (compound): C=CC(=O)Nc1ccc(OC)c(Nc2ncc(C3CC3)c(Nc3ccccc3P(C)(C)=O)n2)c1 ; field requested: IC50
// result < 51 nM

// query Query (compound): C=C(C)C(=O)Nc1ccc(OC)c(Nc2ncc(Cl)c(Nc3ccccc3P(C)(C)=O)n2)c1 ; field requested: IC50
// result ≥ 250 nM

// query Query (compound): C=CC(=O)Nc1cc(Nc2ncc(Cl)c(Nc3ccccc3P(C)(C)=O)n2)c(OC)cc1N(CC)CCN(CC)CC ; field requested: IC50
// result < 51 nM

---

- System: BAF3 EGFR L858R-T790M PURO POOL
- procedure_details: Cell proliferation (MTT), BAF3 EGFR L858R-T790M
- Format: cell-based
- test_conditions: Ba/F3 EGFR
property_measured: IC50

// query Query (compound): C=CC(=O)Nc1ccc(OCC)c(Nc2ncc(Cl)c(Nc3ccccc3P(C)(C)=O)n2)c1 ; field requested: IC50
// result < 51 nM

// query Query (compound): C=CC(=O)Nc1cccc(Oc2nc(Nc3ccc(P(C)(C)=O)cc3OC)ncc2Cl)c1 ; field requested: IC50
// result 51 to 100 nM

// query Query (compound): C=CC(=O)Nc1cc(Nc2ncc(Cl)c(Nc3ccccc3P(C)(C)=O)n2)c(OC)cc1OC(COC)CN(C)C (stereo not shown) ; field requested: IC50
// result < 51 nM

// query Query (compound): C=CC(=O)Nc1ccc(OC)c(Nc2ncc(Cl)c(Nc3ccccc3P(C)(C)=O)n2)c1 ; field requested: IC50
// result < 51 nM

// query Query (compound): C=CC(=O)Nc1cccc(Nc2ncc(Cl)c(Nc3ccccc3P(C)(C)=O)n2)c1 ; field requested: IC50
// result < 51 nM

// query Query (compound): C=CC(=O)Nc1ccc(OC)c(Nc2ncc(Cl)c(Nc3ccc(F)cc3P(C)(C)=O)n2)c1 ; field requested: IC50
// result < 51 nM

// query Query (compound): C=CC(=O)Nc1cc(Nc2ncc(CC)c(Nc3ccccc3P(C)(C)=O)n2)c(OC)cc1N(C)CCN(CC)CC ; field requested: IC50
// result < 51 nM

// query Query (compound): C=CC(=O)Nc1cc(Nc2ncc(Cl)c(Nc3ccccc3P(C)(C)=O)n2)c(OC)cc1OCC(COC)N(C)C (stereo not shown) ; field requested: IC50
// result < 51 nM

// query Query (compound): C=CC(=O)Nc1ccc(OC)c(Nc2ncc(C)c(Nc3ccccc3P(C)(C)=O)n2)c1 ; field requested: IC50
// result < 51 nM

// query Query (compound): C=CC(=O)Nc1cc(Nc2ncc(Cl)c(Nc3ccccc3P(C)(C)=O)n2)c(OC)cc1O[C@H](COC)CN(CC)CC (stereo in doubt) ; field requested: IC50
// result < 51 nM

// query Query (compound): C=CC(=O)Nc1ccc(OC)c(Nc2ncc(Cl)c(Nc3cccc(C)c3P(=O)(CC)CC)n2)c1 ; field requested: IC50
// result < 51 nM

// query Query (compound): C=CC(=O)Nc1cc(Nc2ncc(Cl)c(Nc3ccccc3P(C)(C)=O)n2)c(OC)cc1OC(COC)CN(CC)CC (stereo not shown) ; field requested: IC50
// result < 51 nM

// query Query (compound): COc1ccc(N2C(=O)C=CC2=O)cc1Nc1ncc(Cl)c(Nc2ccccc2P(C)(C)=O)n1 ; field requested: IC50
// result ≥ 250 nM

// query Query (compound): C=CC(=O)Nc1cc(Nc2ncc(Cl)c(Nc3ccccc3P(C)(C)=O)n2)c(OC)cc1N1CCN(C)CC1 ; field requested: IC50
// result 51 to 100 nM

// query Query (compound): C=C(CN(C(C)C)C(C)C)C(=O)Nc1ccc(OC)c(Nc2ncc(Cl)c(Nc3ccccc3P(C)(C)=O)n2)c1 ; field requested: IC50
// result < 51 nM

// query Query (compound): C=CC(=O)Nc1cc(Nc2ncc(Cl)c(Nc3ccc(F)cc3P(C)(C)=O)n2)c(OC)cc1F ; field requested: IC50
// result < 51 nM

// query Query (compound): C=C(CN(C)C)C(=O)Nc1ccc(OC)c(Nc2ncc(Cl)c(Nc3ccccc3P(C)(C)=O)n2)c1 ; field requested: IC50
// result < 51 nM

// query Query (compound): C=CC(=O)Nc1ccc(OC)c(Nc2ncc(Br)c(Nc3ccccc3P(C)(C)=O)n2)c1 ; field requested: IC50
// result < 51 nM

// query Query (compound): COc1cc(P(C)(C)=O)ccc1Nc1ncc(Cl)c(Oc2cccc(NC(=O)/C=C/CN(C)C)c2)n1 ; field requested: IC50
// result ≥ 250 nM

// query Query (compound): C=CC(=O)Nc1cc(Nc2ncc(Cl)c(Nc3ccccc3P(C)(C)=O)n2)c(OC)cc1F ; field requested: IC50
// result < 51 nM

// query Query (compound): C=CC(=O)Nc1cc(Nc2ncc(Cl)c(Nc3ccccc3P(C)(C)=O)n2)c(OC)cc1OCCN(C)CCOC ; field requested: IC50
// result < 51 nM

// query Query (compound): C=CC(=O)Nc1cc(Nc2ncc(Cl)c(Nc3ccccc3P(C)(C)=O)n2)c(OC)cc1N(C)CCN(C)CCOC ; field requested: IC50
// result < 51 nM

// query Query (compound): C=CC(=O)N(C(=O)C=C)c1ccc(OC)c(Nc2ncc(Cl)c(Nc3ccccc3P(C)(C)=O)n2)c1 ; field requested: IC50
// result 51 to 100 nM

// query Query (compound): C=CC(=O)Nc1cc(Nc2ncc(Cl)c(Nc3ccccc3P(C)(C)=O)n2)c(OC)cc1N(C)CCN(CC)CC ; field requested: IC50
// result < 51 nM

// query Query (compound): C=CC(=O)N(C)c1ccc(OC)c(Nc2ncc(Cl)c(Nc3ccccc3P(C)(C)=O)n2)c1 ; field requested: IC50
// result < 51 nM
